Recorded values, source patent US20240301062A1.

Listed below: Top MFI Mean values for each entry.
# Target system: T1, human claudin 6 (CLDN6) (human, UniProt P56747 1-220)
# T1 construct: also called human CLDN6; hCLDN6
# T1 sequence: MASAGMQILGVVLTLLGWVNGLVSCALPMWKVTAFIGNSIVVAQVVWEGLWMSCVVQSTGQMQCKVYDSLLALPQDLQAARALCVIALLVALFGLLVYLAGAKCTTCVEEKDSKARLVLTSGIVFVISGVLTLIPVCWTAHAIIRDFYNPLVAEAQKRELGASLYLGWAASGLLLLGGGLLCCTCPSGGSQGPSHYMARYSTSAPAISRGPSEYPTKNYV
# Procedure text: FACS, HEK293T/human CLDN6 cells
Use MFI as the unit, but write only the number.

Give a short answer stating reported Top MFI Mean for BG87P-24 (antibody, V domains shown) VH: QVQLVQSGAEVKKPGASVKVSCKASGYSFTDYHINWVRQAPGQRLEWMGWIYPGSGYTKYNEKFKGRVTLTRDTSASTAYMELSSLRSEDTAVYYCARSGIYHYVSSYYFDHWGKGTTVTVSS VL: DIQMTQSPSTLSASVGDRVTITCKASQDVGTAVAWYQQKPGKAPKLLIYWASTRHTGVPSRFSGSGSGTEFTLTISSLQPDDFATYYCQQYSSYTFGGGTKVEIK .
141000

Give a short answer stating reported Top MFI Mean for BG87P-m5 (antibody, V domains shown, PTM removal variant of BG87P-Bz0; constant regions not restated (parent: human IgG1/kappa)) VH: QIQLVQSGAEVKKPGASVKVSCKASGYSFTDYHINWVRQAPGQRLEWMGWIYPGSGYTKYNEKFKVRVTLTVDTSASTAYMELSSLRSEDTAVYFCARSGIYHYVSSYYFEHWGKGTTVTVSS VL: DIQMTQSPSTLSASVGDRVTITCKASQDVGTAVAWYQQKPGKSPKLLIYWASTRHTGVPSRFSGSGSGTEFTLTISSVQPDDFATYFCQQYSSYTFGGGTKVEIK .
126000

Give a short answer stating reported Top MFI Mean for BG87P-27 (antibody, V domains shown) VH: QVQLVQSGAEVKKPGASVKVSCKASGYSFTDYHINWVRQAPGQRLEWMGWIYPGSGYTKYNEKFKGRVTLTRDTSASTAYMELSSLRSEDTAVYFCARSGIYHYVSSYYFDHWGKGTTVTVSS VL: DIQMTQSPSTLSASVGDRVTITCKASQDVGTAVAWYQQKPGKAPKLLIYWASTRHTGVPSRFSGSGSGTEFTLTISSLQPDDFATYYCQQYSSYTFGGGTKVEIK .
131000

Give a short answer stating reported Top MFI Mean for BG87P-m3 (antibody, V domains shown, PTM removal variant of chBG87P (VH V65G); constant regions not restated (parent: human IgG1/kappa)) VH: QIQLQQSGPELVKPGASVKISCKASGYSFTDYHINWVKQRPGQGLEWIGWIYPGSGYTKYNEKFKGKATLTVDTSSSTAYMHLTSLTSEDSAVYFCARSGIYHYVSSYYFDHWGQGTTLTVSS VL: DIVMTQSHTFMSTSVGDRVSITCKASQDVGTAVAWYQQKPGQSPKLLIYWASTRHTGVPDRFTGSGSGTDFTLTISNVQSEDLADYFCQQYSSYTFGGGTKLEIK .
227000

Give a short answer stating reported Top MFI Mean for BG87P-21 (antibody, V domains shown) VH: QVQLVQSGAEVKKPGASVKVSCKASGYSFTDYHINWVRQAPGQRLEWMGWIYPGSGYTKYNEKFKGRVTITRDTSASTAYMELSSLRSEDTAVYYCARSGIYHYVSSYYFDHWGKGTTVTVSS VL: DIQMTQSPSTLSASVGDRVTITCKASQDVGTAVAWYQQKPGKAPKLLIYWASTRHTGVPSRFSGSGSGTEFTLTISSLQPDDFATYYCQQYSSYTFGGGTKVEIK .
149000

Further cases:
Give a short answer stating reported Top MFI Mean for BG87P-Bz0 (antibody, V domains shown, also called BG87-Bz0) VH: QIQLVQSGAEVKKPGASVKVSCKASGYSFTDYHINWVRQAPGQRLEWMGWIYPGSGYTKYNEKFKVRVTLTVDTSASTAYMELSSLRSEDTAVYFCARSGIYHYVSSYYFDHWGKGTTVTVSS VL: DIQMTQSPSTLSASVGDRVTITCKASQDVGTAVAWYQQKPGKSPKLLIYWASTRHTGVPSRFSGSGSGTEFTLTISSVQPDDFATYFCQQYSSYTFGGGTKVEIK .
107000

Give a short answer stating reported Top MFI Mean for BG87P-22 (antibody, V domains shown) VH: QVQLVQSGAEVKKPGASVKVSCKASGYSFTDYHINWVRQAPGQRLEWMGWIYPGSGYTKYNEKFKGRVTITRDTSASTAYMELSSLRSEDTAVYFCARSGIYHYVSSYYFDHWGKGTTVTVSS VL: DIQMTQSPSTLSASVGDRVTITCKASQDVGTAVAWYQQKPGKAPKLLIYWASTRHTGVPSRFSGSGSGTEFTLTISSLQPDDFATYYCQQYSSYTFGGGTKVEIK .
137000

Give a short answer stating reported Top MFI Mean for BG87P-Bz7 (antibody, V domains shown) VH: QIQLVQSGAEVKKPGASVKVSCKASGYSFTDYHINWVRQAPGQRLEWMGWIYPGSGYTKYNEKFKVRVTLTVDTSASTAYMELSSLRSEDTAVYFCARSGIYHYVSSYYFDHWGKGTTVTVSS VL: DIQMTQSPSTLSASVGDRVTITCKASQDVGTAVAWYQQKPGKSPKLLIYWASTRHTGVPSRFSGSGSGTEFTLTISSLQPDDFATYFCQQYSSYTFGGGTKVEIK .
155000

Give a short answer stating reported Top MFI Mean for BG87P-Bz5 (antibody, V domains shown) VH: QIQLVQSGAEVKKPGASVKVSCKASGYSFTDYHINWVRQAPGQRLEWMGWIYPGSGYTKYNEKFKVRVTLTVDTSASTAYMELSSLRSEDTAVYYCARSGIYHYVSSYYFDHWGKGTTVTVSS VL: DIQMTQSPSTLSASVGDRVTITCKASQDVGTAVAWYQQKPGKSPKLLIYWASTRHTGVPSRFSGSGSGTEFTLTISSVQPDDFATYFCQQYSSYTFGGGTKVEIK .
141000

Give a short answer stating reported Top MFI Mean for BG87P-m1 (antibody, V domains shown, PTM removal variant of chBG87P; constant regions not restated (parent: human IgG1/kappa)) VH: QIQLQQSGPELVKPGASVKISCKASGYSFTDYHINWVKQRPGQGLEWIGWIYPGSGYTKYNEKFKVKATLTVDTSSSTAYMHLTSLTSEDSAVYFCARSGIYHYVSSYYFEHWGQGTTLTVSS VL: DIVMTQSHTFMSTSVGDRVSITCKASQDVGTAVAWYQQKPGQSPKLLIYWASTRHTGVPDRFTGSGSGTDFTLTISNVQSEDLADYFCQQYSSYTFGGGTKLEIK .
207000
